- experimental-target: T1, human CD4 on cells (SKW3 cells; human PBMCs) (human, UniProt P01730 26-458)
- T1 construct: whole, on cells; SKW3 CD4 knockout cells served as the negative cell line; also called hCD4
- method-summary: FACS confirmation, supernatant on human PBMCs, anti-mouse Fc 647, CD4+ percent of viable cells
Give PBMCs, anti-mFc 647 CD4+ Percent Bound of Viable for every item shown.
# number only, unit % dropped from output

Field PBMCs, anti-mFc 647 CD4+ Percent Bound of Viable (entry 75110_04F22A (antibody, V domains shown, Tested as non-clonal AlivaMab Mouse Kappa hybridoma supernatant: human variable domains and human kappa, mouse Fc) VH: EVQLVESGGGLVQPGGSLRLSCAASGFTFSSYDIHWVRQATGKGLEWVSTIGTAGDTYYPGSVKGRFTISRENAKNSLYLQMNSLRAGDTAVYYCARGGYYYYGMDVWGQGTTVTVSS VL: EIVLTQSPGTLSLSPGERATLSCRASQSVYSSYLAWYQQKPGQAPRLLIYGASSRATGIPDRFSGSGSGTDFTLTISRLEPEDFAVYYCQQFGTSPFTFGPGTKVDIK ) reads 32

// PBMCs, anti-mFc 647 CD4+ Percent Bound of Viable value for 75110_07B16A (antibody, IgG1, V domains shown, Tested as non-clonal AlivaMab Mouse Kappa hybridoma supernatant: human variable domains and human kappa, mouse Fc) VH: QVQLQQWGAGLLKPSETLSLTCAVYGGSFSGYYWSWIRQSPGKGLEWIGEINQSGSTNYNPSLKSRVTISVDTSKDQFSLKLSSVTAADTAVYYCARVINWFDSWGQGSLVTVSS VL: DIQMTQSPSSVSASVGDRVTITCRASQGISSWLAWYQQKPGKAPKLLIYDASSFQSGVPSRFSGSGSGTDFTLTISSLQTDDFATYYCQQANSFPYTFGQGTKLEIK : 29

The binder 75110_06D16A (antibody, V domains shown, Tested as non-clonal AlivaMab Mouse Kappa hybridoma supernatant: human variable domains and human kappa, mouse Fc (detected with anti-mouse Fc)) VH: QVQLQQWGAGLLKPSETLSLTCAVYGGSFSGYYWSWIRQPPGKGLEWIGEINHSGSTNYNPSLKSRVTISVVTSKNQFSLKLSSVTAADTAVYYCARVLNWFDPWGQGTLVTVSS VL: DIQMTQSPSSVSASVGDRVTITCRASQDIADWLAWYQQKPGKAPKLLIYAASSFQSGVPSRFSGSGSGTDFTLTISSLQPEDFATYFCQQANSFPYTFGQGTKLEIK showed PBMCs, anti-mFc 647 CD4+ Percent Bound of Viable equal to 29

PBMCs, anti-mFc 647 CD4+ Percent Bound of Viable for 75110_13P22A (antibody, IgG1, V domains shown, Tested as non-clonal AlivaMab Mouse Kappa hybridoma supernatant: human variable domains and human kappa, mouse Fc) VH: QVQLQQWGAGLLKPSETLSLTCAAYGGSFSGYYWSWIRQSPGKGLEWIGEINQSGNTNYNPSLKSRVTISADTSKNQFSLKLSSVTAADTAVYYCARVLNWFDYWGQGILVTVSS VL: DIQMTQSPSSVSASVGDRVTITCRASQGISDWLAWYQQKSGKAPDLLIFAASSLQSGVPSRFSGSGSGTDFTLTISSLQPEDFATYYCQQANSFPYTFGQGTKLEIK is 27

The reported PBMCs, anti-mFc 647 CD4+ Percent Bound of Viable of the binder 75110_01J17A (antibody, IgG1, V domains shown, Tested as non-clonal AlivaMab Mouse Kappa hybridoma supernatant: human variable domains and human kappa, mouse Fc) VH: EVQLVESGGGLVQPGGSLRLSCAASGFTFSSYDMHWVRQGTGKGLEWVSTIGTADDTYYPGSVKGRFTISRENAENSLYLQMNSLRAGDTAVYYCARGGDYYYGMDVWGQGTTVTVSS VL: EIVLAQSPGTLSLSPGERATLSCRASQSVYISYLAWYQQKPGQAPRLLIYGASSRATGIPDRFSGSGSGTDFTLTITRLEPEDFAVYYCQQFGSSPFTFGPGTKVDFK was 32
